B1: TPR 5TU (parent)
chain: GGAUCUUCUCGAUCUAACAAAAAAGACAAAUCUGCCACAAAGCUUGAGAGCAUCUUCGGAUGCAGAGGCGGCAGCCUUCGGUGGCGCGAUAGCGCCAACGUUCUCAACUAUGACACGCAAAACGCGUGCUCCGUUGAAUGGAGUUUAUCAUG

Variants of: B1
assayName: polymerase ribozyme fitness, log enrichment relative to wild type (log ratio); higher = more active; in vitro selection for triplet polymerase activity
This sample holds only a part of the variants without activity.
quantityName: polymerase ribozyme fitness (log ratio)
In your answer, state the number alone without any accompanying words.

Item G58C G152A has what recorded polymerase ribozyme fitness (log ratio)?
-2.01

Consider next the variant A19G C35U U53G C54A G71A U145C in the same way.
-2.47

Consider next the variant U4G U56G C85A G141C in the same way.
-2.61
